target: Hsc70 (Homo sapiens, UniProt P11142); test: direct binding by quench of compound fluorescence
Sequence (P11142 whole entry): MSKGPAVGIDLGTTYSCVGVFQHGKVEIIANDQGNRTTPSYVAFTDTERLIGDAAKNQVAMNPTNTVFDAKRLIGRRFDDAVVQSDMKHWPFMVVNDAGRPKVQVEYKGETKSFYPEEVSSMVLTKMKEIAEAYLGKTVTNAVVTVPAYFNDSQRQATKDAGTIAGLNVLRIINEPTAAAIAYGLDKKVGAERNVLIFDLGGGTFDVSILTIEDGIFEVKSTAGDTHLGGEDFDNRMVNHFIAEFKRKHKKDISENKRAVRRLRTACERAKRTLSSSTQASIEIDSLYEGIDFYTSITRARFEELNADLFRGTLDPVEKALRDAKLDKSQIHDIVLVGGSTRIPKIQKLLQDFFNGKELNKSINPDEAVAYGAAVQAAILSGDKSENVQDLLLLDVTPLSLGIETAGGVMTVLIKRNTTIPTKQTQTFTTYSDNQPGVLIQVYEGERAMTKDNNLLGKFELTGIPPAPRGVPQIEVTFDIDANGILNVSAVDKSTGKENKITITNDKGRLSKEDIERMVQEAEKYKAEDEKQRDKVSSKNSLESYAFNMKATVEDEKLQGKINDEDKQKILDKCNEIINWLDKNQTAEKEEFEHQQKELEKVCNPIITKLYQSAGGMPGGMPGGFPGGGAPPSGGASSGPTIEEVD
pKd: −log10 of the molar value.
assay-endpoint: pKd

IN: Write down the reported pKd of CCn1c(=O)/c(=C2\Sc3cc(Cl)ccc3N2C)s/c1=C\c1scc[n+]1Cc1ccc(C(F)(F)F)cc1 [JG-118] , test system: Hsc70 (Homo sapiens, UniProt P11142).
OUT: ~5.59

Continuing:
IN: Write down the reported pKd of CCn1c(=O)/c(=C2\Sc3cc(Cl)ccc3N2C)s/c1=C\c1scc[n+]1Cc1cccc(C(F)(F)F)c1 [JG-115] , test system: Hsc70 (Homo sapiens, UniProt P11142).
OUT: ~5.51
